Hey, just so you know, these numbers are from the nanobody polyreactivity screen of Harvey et al. (2022).

- Protocol: yeast display, Sf9 membrane polyspecificity reagent, FACS + sequencing; frameworks hold sequencing errors
Readout label: polyreactivity (PSR sort gate)

sequence_code=QVQLVESGGGLVQAGGSHRLSCAASGFTFVYYAMGWYRQAPGKERELVAAISARTSGTYYADSVKGRFTISRDNAKNTVYLQMNSLTPEDTAVYYCAAGYSYVYWSESAYDYWGQGTQVTVSS experimental_value="low polyreactivity"
sequence_code=QVQLVESGGGLVQAGGSLRLSCAASGITFGRKTMGWYRQAPGKERELLAAIDSGGNTYADSVKGRFTISRDNAKNTDYLEMNSLKPEDTAVYYCAVDGGEFYSYGYWGLGTQVTVSS experimental_value="low polyreactivity"
